experiment: Half life in rat at 2 mg/kg, po; assay type: ADME, organism-based; design: dose 2 mg/kg, route oral; settings: in vivo
Observed property: half-life (h)
Express it in h; write the number only.

Sample CCS(=O)(=O)Nc1cc(F)c(-c2ccc(C#N)n2C)c(F)c1 ; half-life observed: 2.3

* * *

assay: Half life in cynomolgus monkey at 2 mg/kg, iv; type: ADME, organism-based, Macaca fascicularis; parameters: dose 2 mg/kg, route intravenous; conditions: in vivo
Observed property: half-life (h)
Express it in h; write the number only.

Sample CCS(=O)(=O)Nc1cc(F)c(-c2ccc(C#N)n2C)c(F)c1 ; half-life observed: 2.8

* * *

Molecular target: UniProt:P06401
Sequence (P06401 whole entry): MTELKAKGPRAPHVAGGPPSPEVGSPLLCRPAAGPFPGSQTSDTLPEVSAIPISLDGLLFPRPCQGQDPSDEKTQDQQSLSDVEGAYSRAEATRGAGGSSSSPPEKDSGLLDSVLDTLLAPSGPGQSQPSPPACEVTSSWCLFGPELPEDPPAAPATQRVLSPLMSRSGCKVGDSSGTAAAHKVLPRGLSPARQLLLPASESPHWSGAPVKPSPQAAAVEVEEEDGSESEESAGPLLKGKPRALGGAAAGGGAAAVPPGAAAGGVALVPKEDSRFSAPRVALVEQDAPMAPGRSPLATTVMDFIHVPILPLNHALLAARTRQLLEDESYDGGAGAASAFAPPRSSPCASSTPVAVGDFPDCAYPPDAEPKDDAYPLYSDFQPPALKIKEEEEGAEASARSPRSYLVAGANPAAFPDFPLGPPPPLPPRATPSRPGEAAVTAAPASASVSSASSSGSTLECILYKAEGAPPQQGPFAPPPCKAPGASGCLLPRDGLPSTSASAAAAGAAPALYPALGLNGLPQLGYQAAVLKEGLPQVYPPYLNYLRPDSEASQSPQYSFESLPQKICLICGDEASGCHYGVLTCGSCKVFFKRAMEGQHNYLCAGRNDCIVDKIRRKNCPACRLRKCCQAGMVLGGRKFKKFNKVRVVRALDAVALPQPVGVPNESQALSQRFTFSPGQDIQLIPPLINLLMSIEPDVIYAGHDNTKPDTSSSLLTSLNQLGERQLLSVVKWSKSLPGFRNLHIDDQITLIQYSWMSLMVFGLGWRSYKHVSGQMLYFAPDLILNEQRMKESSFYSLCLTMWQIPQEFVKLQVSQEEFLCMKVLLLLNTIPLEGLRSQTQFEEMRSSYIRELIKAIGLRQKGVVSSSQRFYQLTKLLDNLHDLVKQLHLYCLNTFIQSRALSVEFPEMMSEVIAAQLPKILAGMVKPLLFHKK
Assay: Antagonist activity against progesterone receptor in human T47D cells by alkaline phosphatase assay
Assay type: functional, cell-based
Observed property: log10(IC50) (log10 of the value in nM)
Kindly note that the scale is log10 and the underlying IC50 is in nM.

Recorded log10(IC50), per entry:
{"columns": ["Compound", "Assayed target", "Observed property", "Result number"],
 "data": [
  ["CCS(=O)(=O)Nc1ccc(-c2ccc(C#N)n2C)c(C(F)(F)F)c1", "UniProt:P06401", "log10(IC50)", 1.08],
  ["CCS(=O)(=O)Nc1cc(F)c(-c2ccc(C#N)n2C)cc1F", "UniProt:P06401", "log10(IC50)", 1.76],
  ["CCS(=O)(=O)Nc1ccc(-c2ccc(C#N)n2C)c(C#N)c1", "UniProt:P06401", "log10(IC50)", 2.11],
  ["Cn1c(C#N)ccc1-c1ccc(NS(C)(=O)=O)cc1F", "UniProt:P06401", "log10(IC50)", 0.90],
  ["CCS(=O)(=O)Nc1ccc(-c2ccc(C#N)n2C)cc1", "UniProt:P06401", "log10(IC50)", 0.95],
  ["COC[C@]1(OC)CC[C@H]2[C@@H]3CCC4=CC(=O)CCC4=C3[C@@H](c3ccc(/C=N/O)cc3)C[C@@]21C [ASOPRISNIL]", "UniProt:P06401", "log10(IC50)", -0.52],
  ["Cn1c(C#N)ccc1-c1ccc(NS(C)(=O)=O)cc1", "UniProt:P06401", "log10(IC50)", 0.90],
  ["CCCS(=O)(=O)Nc1ccc(-c2ccc(C#N)n2C)cc1", "UniProt:P06401", "log10(IC50)", 1.00]
]}

Log: UniProt:P06401, compound CCS(=O)(=O)Nc1ccc(-c2ccc(C#N)n2C)c(F)c1 , log10(IC50) = 0.78

Log: UniProt:P06401, compound CCS(=O)(=O)Nc1cc(F)c(-c2ccc(C#N)n2C)c(F)c1 , log10(IC50) = 1.08

Log: UniProt:P06401, compound CC(=O)Nc1ccc(-c2ccc(C#N)n2C)cc1 , log10(IC50) = 1.88
